Hi there, I'd appreciate the recorded pIC50 for every entry that follows.
experimentalTarget: T1, recombinant human IL4Rα-his protein (in house made) (human, UniProt P24394 26-232, limits assumed)
T1 construct: also called Human IL4Ra-his
testName: competitive ELISA, blocks biotin-IL4 binding to coated IL4Rα-his
Note on units: pIC50 is unitless, being -log10 of a concentration expressed in mol/L.

Query: Please look up its pIC50: chimeric antibody B8G11F2B7G5E8 (antibody, human IgG4 S228P, kappa, V domains shown, Mouse variable domains on human IgG4/kappa; also called Chimeric B8G11F2B7G5E8; chB8G11F2B7G5E8) VH: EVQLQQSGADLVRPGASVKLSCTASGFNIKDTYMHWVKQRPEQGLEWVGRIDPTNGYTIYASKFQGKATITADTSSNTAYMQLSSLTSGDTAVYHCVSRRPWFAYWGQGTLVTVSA VL: DILMTQTPLSLPVSLGAQASISCRSSQSIVHSNGNTYLEWYLQKPGQSPKLLIYKVTNRFSGVPDRFSGSGSGTDFTLKISRVEAEDLGIYYCFQGSHVPYTFGGGTKLEIKR
Result: 8.74

Query: Please look up its pIC50: mouse antibody B8G11F2B7G5E8 (antibody, V domains shown, Mouse hybridoma mAb; also called Mouse B8G11F2B7G5E8; mAb B8G11F2B7G5E8) VH: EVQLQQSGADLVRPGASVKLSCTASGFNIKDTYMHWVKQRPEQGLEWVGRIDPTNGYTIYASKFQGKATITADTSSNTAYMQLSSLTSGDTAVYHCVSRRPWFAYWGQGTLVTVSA VL: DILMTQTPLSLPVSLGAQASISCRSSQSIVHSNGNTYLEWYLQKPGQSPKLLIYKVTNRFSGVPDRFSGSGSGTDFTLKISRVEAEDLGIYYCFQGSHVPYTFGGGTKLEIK
Result: 8.79

Query: Please look up its pIC50: chimeric antibody C2C1A1A1 (antibody, human IgG4 S228P, kappa, V domains shown, Mouse variable domains on human IgG4/kappa; also called Chimeric C2C1A1A1; chC2C1A1A1) VH: EVQLVESGGGLVQPGGSLKLSCAASGFTFSTYGMSWVRQTPDKRLELVATINSNGGSTSYPDSVKGRFTISRDNAKNTLYLQMSSLKSEDTAMFYCARFFRFRNAMDYWGQGTSVTVSS VL: DIQMTQSPASLSASVGETVTITCRTSENIYSYLAWYQQKQGKSPQFLVYNAKTLAEGVPSRFSGSGSGTQFSLNINSLQSEDFGSYYCQHYYGPPTWTFGGGTKLEIKR
Result: 8.51

Query: Please look up its pIC50: mouse antibody C2C1A1A1 (antibody, V domains shown, Mouse hybridoma mAb; also called Mouse C2C1A1A1) VH: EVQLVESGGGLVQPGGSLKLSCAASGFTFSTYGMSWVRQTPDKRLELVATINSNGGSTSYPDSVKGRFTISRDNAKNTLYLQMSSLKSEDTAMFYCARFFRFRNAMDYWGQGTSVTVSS VL: DIQMTQSPASLSASVGETVTITCRTSENIYSYLAWYQQKQGKSPQFLVYNAKTLAEGVPSRFSGSGSGTQFSLNINSLQSEDFGSYYCQHYYGPPTWTFGGGTKLEIK
Result: 8.72
